System: MDA-MB-435
Experiment: Cytotoxicity against human MDA-MB-435 cells assessed as growth inhibition
Type: functional, cell-based
Settings: read-out: pIC50 (converted)
Endpoint Name: IC50
Don't forget the unit after the number, please.

Please review the entries below; each comes with its answer.
COc1ccc(Nc2nc(C)nc3c2C[C@@H](C)C3)cc1 :: 51300 nM
CCOC(=O)c1[nH]c(Br)c(-c2ccc3c(c2)OCO3)c1Br :: 1820 nM
CCOC(=O)c1[nH]c(Br)c(-c2ccc(OC)cc2)c1Br :: 851 nM

Q: Fill in: IC50 of Cc1nc2c(c(N(C)c3ccccc3)n1)C[C@@H](C)C2 is ___
Ans: 7080 nM

Q: Which IC50 value is on record for CCOC(=O)c1[nH]c(C(=O)c2ccc(OC)cc2)c(-c2ccc(OC)cc2)c1-c1ccc(OC)cc1 ?
Ans: 100000 nM

Q: Request the reported IC50 associated with Cc1nc2c(c(N(C)c3ccccc3)n1)C[C@H](C)C2
Ans: 1660 nM

Q: // query IC50 value for entry COc1cccc(N(C)c2nc(C)nc3c2C[C@H](C)C3)c1
Ans: 95.5 nM

Q: // IC50 lookup, key: CCOC(=O)c1c(-c2ccc(OC)c(OC)c2)c(-c2ccc(OC)c(OC)c2)cn1CCc1ccc(OC)c(OC)c1
Ans: 100000 nM

Q: Entry under review: CCOC(=O)c1[nH]c(Br)c(-c2ccc3cc(OCC)ccc3c2)c1Br . Reported IC50?
Ans: 2000 nM

Q: Suppose we examine the compound CCOC(=O)c1[nH]c(Br)c(-c2ccc(C)cc2)c1Br ; what IC50 value has been reported?
Ans: 2240 nM

* * *

# pKd values compiled below
Molecular target: Tubulin
Experiment: Displacement of [3H]colchicine from tubulin (unknown origin)
Quick note: pKd values are minus log10 of concentrations in mol/L.

Q: What pKd value was documented for this compound, COc1ccc(-c2oc3c(OC)c(OC)c(OC)c(O)c3c(=O)c2OC)cc1O ?
Ans: 6.89

Q: So what does the record say about pKd for COc1ccc(-c2oc3cc(O)c(OC)cc3c(=O)c2OC)cc1O ?
Ans: 5.22
